Data origin: ChEMBL document CHEMBL3351964

test summary: Passive permeability of the compound by PAMPA assay
Format: ADME
measurement conditions: read-out: permeability

- cpd smiles: "CC(C)S(=O)(=O)c1c(Cl)ccc(Nc2nc(=O)cc(C(C)(C)C)[nH]2)c1O"
  Papp / nm/s: 370
